Hello, the source for this data is patent US10144715B2, in case you need it.

- tgt: LXR α LBD protein (Homo sapiens (Human), UniProt Q13133)
- Sequence (Q13133 209-447): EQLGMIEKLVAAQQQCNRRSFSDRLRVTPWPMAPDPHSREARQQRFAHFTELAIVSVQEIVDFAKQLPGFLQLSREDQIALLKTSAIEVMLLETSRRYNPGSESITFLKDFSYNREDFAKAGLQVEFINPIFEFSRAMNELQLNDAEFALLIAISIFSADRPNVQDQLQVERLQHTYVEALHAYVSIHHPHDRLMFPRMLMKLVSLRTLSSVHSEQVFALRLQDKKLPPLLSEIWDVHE
- test_summary: LXR α radioligand binding assay (SPA, competition with [3H]TO901317)
- measurement_context: read-out: LXRα Binding Ki
property_label: log10(Ki) (log10 of the value in nM)
Hi team, quick reminder: these entries are log10 of Ki (nM).

A selection of reference data follows.
> print(dat)
                                   compound                                       tgt  measured.result
1  Cc1nc(N2CCN(c3ccc(F)c(S(C)(=O)=O)c3)C[C@H]2C(C)C)ncc1Cl [7-12]  LXR α LBD protein (Homo sapiens (Human), UniProt Q13133)             2.02
2  CS(=O)(=O)c1cccc(N2CCN(C[C@@H]3CCN(CC(F)(F)F)C3)[C@@H](c3ccccc3)C2)c1 (single isomer, unassigned) [48-61]  LXR α LBD protein (Homo sapiens (Human), UniProt Q13133)             3.15
3  CC(C)[C@@H]1CN(c2ccc(F)c(S(C)(=O)=O)c2)CCN1c1ncc(CNS(C)(=O)=O)c(C(F)(F)F)n1 [15-7]  LXR α LBD protein (Homo sapiens (Human), UniProt Q13133)             2.71
4  CC(C)[C@@H]1CN(c2ccc(F)c(S(C)(=O)=O)c2)CCN1C(=O)OC(C)C(F)(F)F (stereo partly shown) [5-3]  LXR α LBD protein (Homo sapiens (Human), UniProt Q13133)             2.68
5  CC(C)[C@@H]1CN(c2ccc(F)c(S(C)(=O)=O)c2)CCN1c1ncc(Cc2ccc(C(C)(C)O)cc2)c(C(F)(F)F)n1 [Cpd No 31-1]  LXR α LBD protein (Homo sapiens (Human), UniProt Q13133)             2.20

So what's the measured log10(Ki) for this one? COC(=O)c1cnc(N2CCN(c3ccc(F)c(S(C)(=O)=O)c3)CC2C(C)(C)C)nc1C(F)(F)F (stereo not shown) [9-5]
1.61

So what's the measured log10(Ki) for this one? CC1(C)CCC(CN2CCN(c3cccc(S(C)(=O)=O)c3)C[C@@H]2c2ccccc2)CC1 [Cpd No 48-4]
1.59

So what's the measured log10(Ki) for this one? CC(C)[C@@H]1CN(c2ccc(F)c(S(C)(=O)=O)c2)CCN1C(=O)OC(C)(C)C(F)(F)F [5-2]
2.21

So what's the measured log10(Ki) for this one? CC(C)[C@@H]1CN(c2ccc(F)c(S(C)(=O)=O)c2)CCN1c1ncc(C(O)C(F)(F)F)cn1 (stereo partly shown) [Cpd No 41-1]
3.05

So what's the measured log10(Ki) for this one? CC(F)(F)[C@@H]1CN(c2cccc(S(C)(=O)=O)c2)CCN1c1nccc(C(F)(F)F)n1 [7-26]
2.29

So what's the measured log10(Ki) for this one? CC(C)[C@@H]1CN(c2ccc(CN)c(S(C)(=O)=O)c2)CCN1c1nccc(C(F)(F)F)n1 [15-11]
3.34

So what's the measured log10(Ki) for this one? CC(C)[C@H]1CN(c2cccc(S(C)(=O)=O)c2)CCN1C[C@H]1CC[C@@H](C(F)(F)F)OC1 (single isomer, unassigned) [Cpd No 49-5]
2.62
